Experiment: Stability test under influencing factors (high temperature, high humidity, illumination)
Assay type: physicochemical
Conditions: Left to stand open under illumination (4500±500 Lux) for 5 days
parameter.measured: Purity (%)
# value in %; strip the unit string

Use these answered entries as a reference point.
>>> reported_value("COc1cc2nccc(Oc3ccc(NC(=O)c4nn(C(C)C)cc(-c5ccc(F)cc5)c4=O)nc3)c2cc1OC [Crystal form IV]")
99.91
>>> reported_value("COc1cc2nccc(Oc3ccc(NC(=O)c4nn(C(C)C)cc(-c5ccc(F)cc5)c4=O)nc3)c2cc1OC [Crystal form II]")
99.75
>>> reported_value("COc1cc2nccc(Oc3ccc(NC(=O)c4nn(C(C)C)cc(-c5ccc(F)cc5)c4=O)nc3)c2cc1OC [Crystal form I]")
99.70

Now for another entry.
For this compound ( COc1cc2nccc(Oc3ccc(NC(=O)c4nn(C(C)C)cc(-c5ccc(F)cc5)c4=O)nc3)c2cc1OC [Crystal form III] ), measured Purity is 99.90

###

Assay: Stability test under influencing factors (high temperature, high humidity, illumination)
Format: physicochemical
Conditions: Left to stand open under illumination (4500±500 Lux) for 30 days
parameter.measured: Appearance

>>> reported_value("COc1cc2nccc(Oc3ccc(NC(=O)c4nn(C(C)C)cc(-c5ccc(F)cc5)c4=O)nc3)c2cc1OC [Crystal form IV]")
"White or off-white solid"
>>> reported_value("COc1cc2nccc(Oc3ccc(NC(=O)c4nn(C(C)C)cc(-c5ccc(F)cc5)c4=O)nc3)c2cc1OC [Crystal form I]")
"White or off-white solid"
>>> reported_value("COc1cc2nccc(Oc3ccc(NC(=O)c4nn(C(C)C)cc(-c5ccc(F)cc5)c4=O)nc3)c2cc1OC [Crystal form III]")
"White or off-white solid"
>>> reported_value("COc1cc2nccc(Oc3ccc(NC(=O)c4nn(C(C)C)cc(-c5ccc(F)cc5)c4=O)nc3)c2cc1OC [Crystal form II]")
"White or off-white solid"
